Entry source: patent US20240158446A1

Target: GDP-bound KRAS wild-type protein (Homo sapiens, UniProt P01116)
Sequence (P01116 whole entry): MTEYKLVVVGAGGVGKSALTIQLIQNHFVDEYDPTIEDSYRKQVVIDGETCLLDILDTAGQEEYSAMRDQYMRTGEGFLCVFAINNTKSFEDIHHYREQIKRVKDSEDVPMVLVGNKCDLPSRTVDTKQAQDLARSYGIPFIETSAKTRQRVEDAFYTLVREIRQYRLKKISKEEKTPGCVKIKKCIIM
Experiment: Binding to KRAS by surface plasmon resonance (SPR), Single Cycle Kinetics
Details: SPR, Single Cycle Kinetics, GDP-bound KRAS wild-type protein; read-out: KRAS KD
*1 amine or outer side, *2 acyl side, *3 side chain or, on linkers, in order; H or OH if unused. Where a SMILES comes first, the peptide text is derived from it. Bridges are numbered along the chain shown (N, C = ends). [ ]: non-standard residue; d: D form. The star is where a group is joined. hPhe(3-Cl-4-CF3) = N[C@@H](CCc1ccc(C(F)(F)F)c(Cl)c1)C(=O)O; NPrPhe(4-CF3) = CCCN[C@@H](Cc1ccc(C(F)(F)F)cc1)C(=O)O; X4 = CCCN([C@@H](CC(C)C)C(=O)[*:2])[*:1]; NMeGly(cPent) = CN[C@H](C(=O)O)C1CCCC1; NMeD = CN[C@@H](CC(=O)O)C(=O)O; Morpholide = C1CN(*)CCO1; Ac4c = NC1(C(=O)O)CCC1; Sar = CNCC(=O)O
experimental endpoint: pKd
Answers are plain numbers, as −log10 of the molar value.

Example compounds with recorded pKd:
compound	pKd
CCCN1C(=O)C[C@@H](C(=O)N2CCOCC2)N(C)C(=O)[C@H](C2CCCC2)N(C)C(=O)C2(CCC2)NC(=O)[C@@H]2CCCN2C(=O)[C@H](CCc2ccc(C(F)(F)F)c(Cl)c2)NC(=O)CN(C)C(=O)[C@H](Cc2ccc(C(F)(F)F)cc2)N(CCC)C(=O)CN(C)C(=O)CN(C)C(=O)[C@H](C(C)C)NC(=O)[C@@H]1CC(C)C [PP1815] ([X4]V[Sar][Sar][NPrPhe(4-CF3)][Sar][hPhe(3-Cl-4-CF3)]P[Ac4c][NMeGly(cPent)][NMeD]-Morpholide; lactam N-11)	9.47
CCC[C@H]1C(=O)N[C@@H]([C@@H](C)CC)C(=O)N2CCC[C@H]2C(=O)N(C)[C@H]2C/C=C\CCN(C2=O)[C@@H](Cc2ccc(C(F)(F)F)cc2)C(=O)N(C)CC(=O)N[C@@H](CCc2ccc(C(F)(F)F)c(OC)c2)C(=O)N2C[C@@H](C)C[C@H]2C(=O)N(C)C2(CCC2)C(=O)N(C)[C@@H](C2CCCC2)C(=O)N(C)[C@H](C(=O)N(C)C)CC(=O)N1C [PP2362]	10.12

Proceed to the following item.
Fill in: pKd of CC[C@H](C)[C@@H]1NC(=O)[C@@H]2CCCCCCc3ccc(cc3)C[C@@H](C(=O)N(C)CC(=O)N[C@@H](CCc3ccc(C(F)(F)F)c(OC)c3)C(=O)N3C[C@H](OC(C)C)C[C@H]3C(=O)NC3(CC(C)(C)C3)C(=O)N(C)[C@@H](C3CCCC3)C(=O)N(C)[C@H](C(=O)N(C)C)CC(=O)N2C)N2CC/C=C\C[C@@H](C2=O)N(C)C(=O)CN(C)C1=O [PP3067] is ___
10.28

* * *

Biological target: GDP-bound KRAS wild-type protein (Homo sapiens, UniProt P01116)
Test: Binding to KRAS by surface plasmon resonance (SPR), Single Cycle Kinetics
Conditions: SPR Single Cycle Kinetics, GDP-bound KRAS wild-type protein, 1:1 binding model; read-out: KRAS KD
Where a SMILES comes first, the peptide text is derived from it. Bridges are numbered along the chain shown (N, C = ends). [ ]: non-standard residue; d: D form. The star is where a group is joined. hPhe(3-Cl-4-CF3) = N[C@@H](CCc1ccc(C(F)(F)F)c(Cl)c1)C(=O)O; NPrPhe(4-CF3) = CCCN[C@@H](Cc1ccc(C(F)(F)F)cc1)C(=O)O; Piperazinyl(4-(3-oxetanyl)) = C1OCC1N1CCN(*)CC1; NMeGly(cPent) = CN[C@H](C(=O)O)C1CCCC1; NMeD = CN[C@@H](CC(=O)O)C(=O)O; NMeL = CN[C@@H](CC(C)C)C(=O)O; Ac5c = NC1(C(=O)O)CCCC1; Sar = CNCC(=O)O
experimental endpoint: pKd
Numbers only, as −log10 of the molar value.

Could you share what pKd was measured for CCCN1C(=O)CN(C)C(=O)CN(C)C(=O)[C@H]([C@@H](C)CC)NC(=O)[C@H](CC(C)C)N(C)C(=O)C[C@@H](C(=O)N2CCN(C3COC3)CC2)N(C)C(=O)[C@H](C2CCCC2)N(C)C(=O)C2(CCCC2)NC(=O)[C@@H]2CCCN2C(=O)[C@H](CCc2ccc(C(F)(F)F)c(Cl)c2)NC(=O)CN(C)C(=O)[C@@H]1Cc1ccc(C(F)(F)F)cc1 [PP0175] ([NMeL]I[Sar][Sar][NPrPhe(4-CF3)][Sar][hPhe(3-Cl-4-CF3)]P[Ac5c][NMeGly(cPent)][NMeD]-{Piperazinyl(4-(3-oxetanyl))}; lactam N-11) , tested on GDP-bound KRAS wild-type protein (Homo sapiens, UniProt P01116)?
9.46

* * *

Target: GDP-bound KRAS wild-type protein (Homo sapiens)
Assay: Binding to KRAS by surface plasmon resonance (SPR), Single Cycle Kinetics
Details: SPR, Single Cycle Kinetics, 1:1 binding model; read-out: KD value with respect to GDP-bound KRAS wild-type protein
experimental endpoint: pKd
Numbers only, as −log10 of the molar value.

Example molecules with recorded pKd:
molecule	pKd
CCC[C@H]1C(=O)N[C@@H]([C@@H](C)CC)C(=O)N(C)CC(=O)N(C)[C@H]2C/C=C\CCN(C2=O)[C@@H](Cc2ccc(C)cc2)C(=O)N(C)CC(=O)N[C@@H](CCc2cc(F)c(C(F)(F)F)c(F)c2)C(=O)N2C[C@H](OCC)C[C@H]2C(=O)N(C)C2(CCC2)C(=O)N(C)[C@@H](C2CCCC2)C(=O)N(C)[C@H](C(=O)N2CCCC2)CC(=O)N1C [PP3121]	10.37
CCCO[C@@H]1C[C@H]2C(=O)NC3(CC(C)(C)C3)C(=O)N(C)[C@@H](C3CCCC3)C(=O)N(C)[C@H](C(=O)N3CCCC3)CC(=O)N(C)[C@H]3CCCCc4ccc(cc4)C[C@@H](C(=O)N(C)CC(=O)N[C@@H](CCc4ccc(C(F)(F)F)c(OC)c4)C(=O)N2C1)N1CC/C=C\C[C@@H](C1=O)N(C)C(=O)CN(C)C(=O)[C@H]([C@@H](C)CC)NC3=O [PP3094]	10.09
CCC[C@H]1C(=O)N[C@@H]([C@@H](C)CC)C(=O)N(C2CC2)CC(=O)N(C)[C@H]2C/C=C\CCN(C2=O)[C@@H](Cc2ccc(C(F)(F)F)cc2)C(=O)N(C)CC(=O)N[C@@H](CCc2cc(F)c(C(F)(F)F)c(F)c2)C(=O)N2C[C@H](OCC)C[C@H]2C(=O)N(C)C2(CCC2)C(=O)N(C)[C@@H](C2CCCC2)C(=O)N(C)[C@H](C(=O)N2CCCC2)CC(=O)N1C [PP3112]	8.51
CCC[C@H]1C(=O)N[C@@H]([C@@H](C)CC)C(=O)N2CCC[C@H]2C(=O)N(C)[C@H]2C/C=C\CCN(C2=O)[C@@H](Cc2ccc(C(F)(F)F)cc2)C(=O)N(C)CC(=O)N[C@@H](CCc2cc(F)c(C(F)(F)F)c(F)c2)C(=O)N2C[C@H](OCC)C[C@H]2C(=O)N(C)C2(CCC2)C(=O)N(C)[C@@H](C2CCCC2)C(=O)N(C)[C@H](C(=O)N2CCCC2)CC(=O)N1C [PP3116]	9.57
CCC[C@H]1C(=O)N[C@@H]([C@@H](C)CC)C(=O)N(C)CC(=O)N(C)[C@H]2C/C=C\CCN(C2=O)[C@@H](Cc2ccc(C)cc2)C(=O)N(C)CC(=O)N[C@@H](CCc2cc(F)c(C(F)(F)F)c(F)c2)C(=O)N2C[C@H](OCC)C[C@H]2C(=O)N(C)C2(CCC2)C(=O)N(C)[C@@H](C2CCCC2)C(=O)N(C)[C@H](C(=O)N2CCCCC2)CC(=O)N1C [PP3119]	10.05
CCC[C@H]1C(=O)N[C@@H]([C@@H](C)CC)C(=O)N2CCC[C@H]2C(=O)N(C)[C@H]2C/C=C\CCN(C2=O)[C@@H](Cc2ccc(C)cc2)C(=O)N(C)CC(=O)N[C@@H](CCc2ccc(C(F)(F)F)c(OC)c2)C(=O)N2C[C@H](OCC)C[C@H]2C(=O)N(C)C2(CCC2)C(=O)N(C)[C@@H](C2CCCC2)C(=O)N(C)[C@H](C(=O)N2CCCC2)CC(=O)N1C [PP3102]	9.74

Batch request: pKd for each of the following molecules.
1. CCC[C@H]1C(=O)N[C@@H]([C@@H](C)CC)C(=O)N2CCC[C@H]2C(=O)N(C)[C@H]2C/C=C\CCN(C2=O)[C@@H](Cc2ccc(C)cc2)C(=O)N(C)CC(=O)N[C@@H](CCc2cc(F)c(C(F)(F)F)c(F)c2)C(=O)N2C[C@H](OCC)C[C@H]2C(=O)N(C)C2(CCC2)C(=O)N(C)[C@@H](C2CCCC2)C(=O)N(C)[C@H](C(=O)N2CCCC2)CC(=O)N1C [PP3117]
2. CCC[C@H]1C(=O)N[C@@H]([C@@H](C)CC)C(=O)N(C)CC(=O)N(C)[C@H]2C/C=C\CCN(C2=O)[C@@H](Cc2ccc(C(F)(F)F)cc2)C(=O)N(C)CC(=O)N[C@@H](CCc2ccc(C(F)(F)F)c(OC)c2)C(=O)N2C[C@H](OCC)C[C@H]2C(=O)N(C)C2(CCC2)C(=O)N(C)[C@@H](C2CCCC2)C(=O)N(C)[C@H](C(=O)N2CCCC2)CC(=O)N1C [PP3105]
3. CCC[C@H]1C(=O)N[C@@H]([C@@H](C)CC)C(=O)N(C)CC(=O)N(C)[C@H]2C/C=C\CCN(C2=O)[C@@H](Cc2ccc(C)cc2)C(=O)N(C)CC(=O)N[C@@H](CCc2ccc(C(F)(F)F)c(OC)c2)C(=O)N2C[C@H](OCC)C[C@H]2C(=O)N(C)C2(CCC2)C(=O)N(C)[C@@H](C2CCCC2)C(=O)N(C)[C@H](C(=O)N2CCCC2)CC(=O)N1C [PP3106]
4. CCC[C@H]1C(=O)N[C@@H]([C@@H](C)CC)C(=O)N(C)CC(=O)N(C)[C@H]2C/C=C\CCN(C2=O)[C@@H](Cc2ccc(C)cc2)C(=O)N(C)CC(=O)N[C@@H](CCc2ccc(C(F)(F)F)c(OC)c2)C(=O)N2C[C@H](OCC)C[C@H]2C(=O)N(C)C2(CCC2)C(=O)N(C)[C@@H](C2CCCC2)C(=O)N(C)[C@H](C(=O)N2CCCCC2)CC(=O)N1C [PP3104]
5. CCC[C@H]1C(=O)N[C@@H]([C@@H](C)CC)C(=O)N2CCC[C@H]2C(=O)N(C)[C@H]2C/C=C\CCN(C2=O)[C@@H](Cc2ccc(C)cc2)C(=O)N(C)CC(=O)N[C@@H](CCc2ccc(C(F)(F)F)c(OC)c2)C(=O)N2C[C@H](OCC)C[C@H]2C(=O)N(C)C2(CCC2)C(=O)N(C)[C@@H](C2CCCC2)C(=O)N(C)[C@H](C(=O)N2CCCCC2)CC(=O)N1C [PP3100]

9.82
10.22
10.32
10.01
9.54
